measurementTarget: Serine/threonine-protein kinase Nek1 (Homo sapiens)
assaySetup: at 1 µM
Description: GSK_PKIS: NEK1 mean inhibition at 1 uM [Nanosyn]
Would you mind telling me the reported inhibition of each entry?
Answers are plain numbers, in %.

>>> df
                    compoundstructurestring  measuredresult
0   Cc1ccc(C(=O)NC2CC2)cc1-c1ccc2[nH]ncc2c1            1.87
1  NS(=O)(=O)c1ccc(Nc2cc(-c3cccc(O)c3)n[nH]2)cc1            3.43
2       COc1cc2ncnc(Nc3ccc(C)c(O)c3)c2cc1OC            5.46
3  CCS(=O)(=O)c1ccc(OC)c(Nc2nccc(N(C)c3ccc4c(C)n[nH]c4c3)n2)c1            2.74

Switching to the query record.
Task item: Write down the reported inhibition (system: Serine/threonine-protein kinase Nek1 (Homo sapiens)) of O=C(Nc1ccc(Oc2ccc3[nH]c(NC(=O)c4ccco4)nc3c2)cc1)Nc1cc(C(F)(F)F)ccc1F
Reply: 0.27

---

Tested on: Platelet-derived growth factor receptor alpha (Homo sapiens), P16234 [D842V]
Sequence (P16234 whole entry D842V): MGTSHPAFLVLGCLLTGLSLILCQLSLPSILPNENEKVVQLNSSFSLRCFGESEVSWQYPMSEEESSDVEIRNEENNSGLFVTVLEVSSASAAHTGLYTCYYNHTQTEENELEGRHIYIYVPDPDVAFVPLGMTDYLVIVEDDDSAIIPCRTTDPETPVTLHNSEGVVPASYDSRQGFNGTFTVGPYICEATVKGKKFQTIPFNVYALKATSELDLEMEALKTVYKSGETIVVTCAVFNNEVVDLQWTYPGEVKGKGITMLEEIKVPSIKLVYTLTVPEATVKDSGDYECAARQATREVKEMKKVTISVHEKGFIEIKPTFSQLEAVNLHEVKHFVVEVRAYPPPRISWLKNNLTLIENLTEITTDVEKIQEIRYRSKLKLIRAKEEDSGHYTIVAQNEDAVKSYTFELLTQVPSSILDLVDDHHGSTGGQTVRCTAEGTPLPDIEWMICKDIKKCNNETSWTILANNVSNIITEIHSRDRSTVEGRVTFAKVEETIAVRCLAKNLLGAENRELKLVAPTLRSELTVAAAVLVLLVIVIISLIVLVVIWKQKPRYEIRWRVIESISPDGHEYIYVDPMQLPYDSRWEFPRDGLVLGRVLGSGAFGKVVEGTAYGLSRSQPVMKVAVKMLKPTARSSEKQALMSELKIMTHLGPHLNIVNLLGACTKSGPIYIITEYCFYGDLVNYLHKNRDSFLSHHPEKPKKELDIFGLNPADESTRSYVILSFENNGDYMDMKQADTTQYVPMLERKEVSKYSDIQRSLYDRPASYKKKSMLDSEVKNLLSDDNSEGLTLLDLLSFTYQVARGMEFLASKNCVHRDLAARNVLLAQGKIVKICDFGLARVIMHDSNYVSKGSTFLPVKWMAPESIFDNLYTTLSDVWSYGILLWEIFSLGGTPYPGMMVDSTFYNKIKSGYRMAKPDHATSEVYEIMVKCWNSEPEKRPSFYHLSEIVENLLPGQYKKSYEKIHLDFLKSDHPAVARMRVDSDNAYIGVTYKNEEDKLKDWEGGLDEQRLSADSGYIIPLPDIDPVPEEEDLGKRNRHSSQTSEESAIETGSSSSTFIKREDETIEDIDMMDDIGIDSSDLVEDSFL
assaySetup: at 1 µM
The following ranges of inhibition define the classes used here: bin A (below 4%), bin B (4% to below 8%), bin C (8% or more)

These solved cases illustrate the format of a correct answer.
In [3]: df
Out[3]:
                    compoundstructurestring  assignedlabel
0   Cc1ccc(C(=O)NC2CC2)cc1-c1ccc2[nH]ncc2c1          bin B
1  NS(=O)(=O)c1ccc(Nc2cc(-c3cccc(O)c3)n[nH]2)cc1          bin C
2          CN(C)CCCn1c(-c2nonc2N)nc2cnccc21          bin A
3  CN(C)c1cc2c(Nc3ccc4c(cnn4Cc4ccccc4)c3)ncnc2cn1          bin B
4  Nc1nccc(-c2c(-c3ccc(F)cc3)ncn2CCCN2CCOCC2)n1          bin B
5  COc1cccc(-n2nc(C)c3c(N/N=C(\C)c4ccncc4)ncnc32)c1          bin A

Task item: Tag the class for NS(=O)(=O)c1cccc(Nc2cc(-c3ccc(F)cc3)n[nH]2)c1
Reply: bin C

Task item: Field: class (inhibition) — entry: Cc1nc(-c2ccccc2)n2nc(NCCCN3CCOCC3)ncc12
Reply: bin B

Task item: Sort into band: COc1ccc2ncnc(Nc3ccc(OCc4ccccc4)cc3)c2c1
Reply: bin A

Task item: Using the reported inhibition, which band applies to NS(=O)(=O)c1ccc(-c2cc3ccncc3cc2OCc2ccccc2)cc1 ?
Reply: bin B

Task item: Looking at CCS(=O)(=O)c1ccc(OC)c(Nc2ncc(-c3cccc(OC)c3)o2)c1 , which class would you pick?
Reply: bin C

Task item: Which bin should I file CCn1c(-c2nonc2N)nc2ccc(F)cc21 under?
Reply: bin A

Task item: Assign a category based on measured inhibition for O=S(=O)(CCOCc1ccc(-c2ccc3ncnc(Nc4ccc(OCc5cccc(F)c5)c(Cl)c4)c3c2)o1)c1ccccc1 and give only the class name.
Reply: bin A

Task item: Categorize the following entry: NS(=O)(=O)c1cccc(-c2cc3ccncc3cc2OCc2ccccc2)c1
Reply: bin B

Task item: Each compound maps to one class by inhibition. Which class for COC(=O)c1cncc(/C=C/c2c(C)cc(O)cc2C)c1 ?
Reply: bin B

---

Tested on: Platelet-derived growth factor receptor alpha (Homo sapiens), P16234 [D842V]
assaySetup: at 1 µM
Please note: TRUE applies when inhibition is 7% or greater, and FALSE applies otherwise.

Would you please look over these solved cases?
>>> print(df.to_string())
                    compoundstructurestring  assignedlabel
0  Cc1cc(-c2ccccn2)cc(C)c1/C=C/c1cncc(-c2nn[nH]n2)c1          FALSE
1  NS(=O)(=O)c1ccc(NC=C2C(=O)Nc3ccc4ncsc4c32)cc1           TRUE
2  O=C1Nc2ccccc2/C1=C/Nc1ccc2[nH]c(=O)[nH]c2c1           TRUE
3   NC(=O)c1cccc(Nc2nccc(Nc3cccc(F)c3)n2)c1           TRUE
4  Cc1ccc2c(c1)/C(=N/Nc1ccc(S(N)(=O)=O)cc1)C(=O)N2           TRUE

Alright, here's another compound for you.
Task item: Would you say c1ccc(Cc2nc3ccc(Nc4ncnc5ccccc45)cc3[nH]2)cc1 shows inhibition at minimum 7%?
Reply: FALSE
